- experimental target: human NMUR1 (Homo sapiens, UniProt Q9HB89)
- Construct: expressed in transfected cells
- Sequence (Q9HB89 1-426): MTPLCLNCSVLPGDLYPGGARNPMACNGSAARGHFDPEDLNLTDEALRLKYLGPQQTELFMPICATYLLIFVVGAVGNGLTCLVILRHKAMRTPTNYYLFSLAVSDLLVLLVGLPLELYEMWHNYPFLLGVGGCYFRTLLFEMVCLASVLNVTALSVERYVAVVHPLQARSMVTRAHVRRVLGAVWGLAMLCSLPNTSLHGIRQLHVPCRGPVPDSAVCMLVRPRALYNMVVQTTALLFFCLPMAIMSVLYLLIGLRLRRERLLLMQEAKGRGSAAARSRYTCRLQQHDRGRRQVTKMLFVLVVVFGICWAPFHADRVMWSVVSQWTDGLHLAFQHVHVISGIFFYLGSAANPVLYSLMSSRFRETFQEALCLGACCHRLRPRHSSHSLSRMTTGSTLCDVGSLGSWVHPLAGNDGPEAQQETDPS
- protocol details: Ca influx assay using CHO cells expressing human NMUR1
- Assay type: cell-based
- experimental context: CHO cells stably expressing human NMUR1; intracellular Ca elevation, FLIPR Tetra; relative to 1 μM porcine NMU-8; read-out: hNMUR1 EC50
Non-standard residues stand in square brackets, D forms with d. Primed or numbered codes have the meaning given here. *: point of attachment. Acetyl(2-(piperazin-1-yl)) = O=C(CN1CCNCC1)*; 2Nal = N[C@@H](Cc1ccc2ccccc2c1)C(=O)O; Pic(4) = not defined here; NMeA = CN[C@@H](C)C(=O)O; Ahx = NCCCCCC(=O)O
Let's look at some substances and their measured EC50.
parameter: EC50

>>> value_observed("PEG20k(AL)-Pic(4)0,Nal(2)2,NMeAla6-NMU-8 ({PEG20k(AL)-Pic(4)}-Y[2Nal]LFR[NMeA]RN-NH2; reading uncertain) [Compound F, PEG20k(AL)-Pic(4)-Tyr-Nal(2)-Leu-Phe-Arg-NMeAla-Arg-Asn-NH2]")
"> 1000 nM"
>>> value_observed("PEG20k(AL)-NpipAc0,Nal(2)2,Ala6-NMU-8 ({PEG20k(AL)-Acetyl(2-(piperazin-1-yl))}-Y[2Nal]LFRARN-NH2) [Compound D, PEG20k(AL)-NpipAc-Tyr-Nal(2)-Leu-Phe-Arg-Ala-Arg-Asn-NH2]")
"> 1000 nM"
>>> value_observed("PEG20k(AL)-PEG(2)0,Nal(2)2,NMeAla6-NMU-8 ({PEG20k(AL)-PEG(2)}-Y[2Nal]LFR[NMeA]RN-NH2) [PEG20k(AL)-PEG(2)-Tyr-Nal(2)-Leu-Phe-Arg-NMeAla-Arg-Asn-NH2]")
"> 1000 nM"
>>> value_observed("PEG20k(AL)-Acp0,Nal(2)2,NMeAla6-NMU-8 ({PEG20k(AL)-Ahx}-Y[2Nal]LFR[NMeA]RN-NH2) [Compound G, PEG20k(AL)-Acp-Tyr-Nal(2)-Leu-Phe-Arg-NMeAla-Arg-Asn-NH2]")
"170 nM"

----------
- System: male C57BL/6J mice
- protocol details: Subcutaneous administration test in mice (anorectic activity, food intake)
- Assay type: in vivo
- experimental context: 600 nmol/kg/day subcutaneous, food intake 1 day after initiation of administration, vs solvent control
Non-standard residues stand in square brackets, D forms with d. Primed or numbered codes have the meaning given here. *: point of attachment. Acetyl(2-(piperazin-1-yl)) = O=C(CN1CCNCC1)*; 2Nal = N[C@@H](Cc1ccc2ccccc2c1)C(=O)O; Pic(4) = not defined here; NMeA = CN[C@@H](C)C(=O)O; Ahx = NCCCCCC(=O)O
parameter: Food intake Inhibition (%)

>>> value_observed("PEG20k(AL)-Acp0,Nal(2)2,NMeAla6-NMU-8 ({PEG20k(AL)-Ahx}-Y[2Nal]LFR[NMeA]RN-NH2) [Compound G, PEG20k(AL)-Acp-Tyr-Nal(2)-Leu-Phe-Arg-NMeAla-Arg-Asn-NH2]")
71.4
>>> value_observed("PEG20k(AL)-Pic(4)0,Nal(2)2,NMeAla6-NMU-8 ({PEG20k(AL)-Pic(4)}-Y[2Nal]LFR[NMeA]RN-NH2; reading uncertain) [Compound F, PEG20k(AL)-Pic(4)-Tyr-Nal(2)-Leu-Phe-Arg-NMeAla-Arg-Asn-NH2]")
74.3
>>> value_observed("PEG20k(AL)-NpipAc0,Nal(2)2,Ala6-NMU-8 ({PEG20k(AL)-Acetyl(2-(piperazin-1-yl))}-Y[2Nal]LFRARN-NH2) [Compound D, PEG20k(AL)-NpipAc-Tyr-Nal(2)-Leu-Phe-Arg-Ala-Arg-Asn-NH2]")
70.5
>>> value_observed("PEG20k(AL)-PEG(2)0,Nal(2)2,NMeAla6-NMU-8 ({PEG20k(AL)-PEG(2)}-Y[2Nal]LFR[NMeA]RN-NH2) [PEG20k(AL)-PEG(2)-Tyr-Nal(2)-Leu-Phe-Arg-NMeAla-Arg-Asn-NH2]")
68.6
